- ASSAY TARGET: T1, recombinant human Tau monomer, 2N4R isoform (amino acids 2-441) (human, UniProt P10636-8 2-441)
- T1 construct: range 2-441; N-terminal His-tag removed with TEV protease; also called monomeric Tau
- T1 sequence (P10636 other isoform, or with tags, fused parts or gaps limits assumed): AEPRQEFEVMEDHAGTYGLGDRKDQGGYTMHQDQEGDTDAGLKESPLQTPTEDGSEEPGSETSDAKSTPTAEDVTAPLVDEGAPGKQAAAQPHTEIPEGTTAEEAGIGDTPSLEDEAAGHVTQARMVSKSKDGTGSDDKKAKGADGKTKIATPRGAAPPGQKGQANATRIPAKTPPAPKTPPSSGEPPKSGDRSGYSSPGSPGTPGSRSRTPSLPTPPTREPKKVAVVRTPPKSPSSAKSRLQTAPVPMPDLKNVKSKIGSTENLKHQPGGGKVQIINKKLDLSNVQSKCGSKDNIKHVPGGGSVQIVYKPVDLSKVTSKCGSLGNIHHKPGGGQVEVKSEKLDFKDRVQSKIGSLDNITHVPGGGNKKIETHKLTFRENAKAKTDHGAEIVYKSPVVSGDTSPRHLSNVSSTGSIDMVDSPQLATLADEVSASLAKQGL
- ASSAY DETAILS: SPR screen, hIgG captured, Tau monomer analyte
MEASURE: Kd (nM)
# unit: nM | format: bare number

Given the binder hu94B2 HC3 + LC9 (antibody, V domains shown) VH: EVQLVQSGAEVKKPGASVKVSCKASGYSLTGYTMNWVRQAPGQGLEWIGLISPYNGVTSYNQKFKGRATITVDKSTSTAYLELSSLRSEDTAVYYCARQGAYWGQGTLVTVSS VL: DVVMTQTPLSLPVTPGQPASISCKSSQSLLDSDGKTYLNWLLQKPGQSPQRLIYLVSKLDSGVPDRFSGSGSGTDFTLKISRVEAEDVGVYYCWQGTHFPWTFGQGTKVEIK , what is its reported Kd?
2

Item hu94B2 HC5 + LC13 (antibody, V domains shown) VH: EVQLVQSGAEVKKPGASVKVSCKASGYSLTGYTMNWVRQAPGQGLEWIGLISPYNGVTSYNQKFKGRATLTVDTSTSTAYLELSSLRSEDTAVYYCARQGAYWGQGTLVTVSS VL: DIVMTQTPLSLPVTPGQPASISCKSSQSLLDSDGKTYLNWLLQKPGQSPQRLIYLVSKLDSGVPDRFSGSGSGTDFTLKISRVEAEDVGVYYCWQGTHFPWTFGQGTKVEIK has what recorded Kd?
4

Consider the binder shown here: hu94B2.v105 (94B2.HC1 + 94B2.LC13) (antibody, IgG1, V domains shown, also called hu94B2 HC1 + LC13) VH: EVQLVQSGAEVKKPGASVKVSCKASGYSLTGYTMNWVRQAPGQGLEWIGLISPYNGVTSYNQKFKGRATLTVDKSTSTAYLELSSLRSEDTAVYYCARQGAYWGQGTLVTVSS VL: DIVMTQTPLSLPVTPGQPASISCKSSQSLLDSDGKTYLNWLLQKPGQSPQRLIYLVSKLDSGVPDRFSGSGSGTDFTLKISRVEAEDVGVYYCWQGTHFPWTFGQGTKVEIK What is its recorded Kd?
4.1
